These measurements were taken from patent US7118895B2.

- Tested on: Crude diglycosidase
- protocol-details: Examination of substrate concentration in the conversion into isoflavone aglycons by diglycosidase using soybean materials;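 note: percent of the isoflavone family total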
- Type: biochemical, Penicillium multicolor IAM7153
- condition-parameters: concentrated soybean protein, substrate concentration 5%, heat treatment of enzyme no, reaction time 3 h
experimental-readout: Decomposition efficiency: ratio of each glycoside/aglycon within its isoflavone family (%)
Form entry: value (%) — number only.

Guide cases for Decomposition efficiency: ratio of each glycoside/aglycon within its isoflavone family, answers given:
smiles_input=COc1cc2c(=O)c(-c3ccc(O)cc3)coc2cc1O[C@@H]1O[C@H](COC(=O)CC(=O)O)[C@@H](O)[C@H](O)[C@H]1O system_tested="Crude diglycosidase" recorded_result=0.4
smiles_input=CC(=O)OC[C@H]1O[C@@H](Oc2ccc3c(=O)c(-c4ccc(O)cc4)coc3c2)[C@H](O)[C@@H](O)[C@@H]1O system_tested="Crude diglycosidase" recorded_result=20.5
smiles_input=COc1cc2c(=O)c(-c3ccc(O)cc3)coc2cc1O[C@@H]1O[C@H](COC(C)=O)[C@@H](O)[C@H](O)[C@H]1O system_tested="Crude diglycosidase" recorded_result=17.8
smiles_input=CC(=O)OC[C@H]1O[C@@H](Oc2cc(O)c3c(=O)c(-c4ccc(O)cc4)coc3c2)[C@H](O)[C@@H](O)[C@@H]1O system_tested="Crude diglycosidase" recorded_result=26.3

Challenge: // query Decomposition efficiency: ratio of each glycoside/aglycon within its isoflavone family value for entry `COc1cc2c(=O)c(-c3ccc(O)cc3)coc2cc1O`
Response given: 81.9
